system: EW-24 (Ewing's Sarcoma); test: combination Emax (second highest fraction inhibited in the dose matrix, 72 h); higher = more inhibition; extreme values may be limits of the assay
observation-type: combination Emax
A bare number is all that is needed in reply.

compound	tested-target	combination Emax
COc1cc2c(cc1OCCCCCOc1cc3c(cc1OC)C(=O)N1C=C(C)C[C@H]1C=N3)N=C[C@@H]1CC(C)=CN1C2=O [SG3199] + O=C(c1cc(Cc2n[nH]c(=O)c3ccccc23)ccc1F)N1CCN(C(=O)C2CC2)CC1 [Olaparib] (first compound max 0.001 µM, 7x7, partner max 10 µM)	EW-24 (Ewing's Sarcoma)	0.196

Problem: Specify reported combination Emax for the compound shown: NC1(C(=O)N[C@@H](CCO)c2ccc(Cl)cc2)CCN(c2ncnc3[nH]ccc23)CC1 [Capivasertib] + C[C@@H]1COCCN1C2=NC(=NC(=C2)C3(CC3)[S@](=N)(=O)C)C4=C5C=CNC5=NC=C4 [AZD6738] (first compound max 10 µM, 7x7, partner max 10 µM)
Solution: 0.786

###

The entries below are paired with their reported combination Emax.
system: PANC-04-03 (Pancreatic Carcinoma); test: combination Emax (second highest fraction inhibited in the dose matrix, 72 h); higher = more inhibition; extreme values may be limits of the assay
A bare number is all that is needed in reply.

Problem: For PANC-04-03 (Pancreatic Carcinoma), give combination Emax of the listed compound: Cc1c2c(nn1C)CSCc1cc(n(C)n1)CSc1cc(c3ccccc3c1)OCCCc1c(C(=O)O)n(C)c3c-2c(Cl)ccc13 [AZD5991] + C[C@@H](Nc1cc(F)cc(F)c1)c1cc(C(=O)N(C)C)cc2c(=O)cc(N3CCOCC3)oc12 [AZD8186] (first compound max 1 µM, 7x7, partner max 3 µM)
Solution: 0.266

###

The entries below are paired with their reported combination Emax.
system: NEC8 (Other Solid Carcinomas); experiment: combination Emax (second highest fraction inhibited in the dose matrix, 72 h); higher = more inhibition; extreme values may be limits of the assay
A bare number is all that is needed in reply.

molecule	value-measured
COc1cccc(OCCCN)c1-c1cc(Nc2cnc(C#N)cn2)n[nH]1 [Prexasertib] + C=CCn1c(=O)c2cnc(Nc3ccc(N4CCN(C)CC4)cc3)nc2n1-c1cccc(C(C)(C)O)n1 [AZD1775] (first compound max 1 µM, partner max 1 µM)	0.999

Problem: For NEC8 (Other Solid Carcinomas), give combination Emax of the listed molecule: CS(=O)(=O)CCNCc1ccc(-c2ccc3ncnc(Nc4ccc(OCc5cccc(F)c5)c(Cl)c4)c3c2)o1 [Lapatinib] + C[C@@H](Oc1cc(-c2cnn(C3CCNCC3)c2)cnc1N)c1c(Cl)ccc(F)c1Cl [Crizotinib] (first compound max 10 µM, 7x7, partner max 10 µM)
Solution: 0.862

###

test system: EW-24 (Ewing's Sarcoma); assay: combination Emax (second highest fraction inhibited in the dose matrix, 72 h); higher = more inhibition; extreme values may be limits of the assay
observation-type: combination Emax
A bare number is all that is needed in reply.

Solved cases below.
compound	combination Emax
C=CCn1c(=O)c2cnc(Nc3ccc(N4CCN(C)CC4)cc3)nc2n1-c1cccc(C(C)(C)O)n1 [AZD1775] + O=C(c1cc(Cc2n[nH]c(=O)c3ccccc23)ccc1F)N1CCN(C(=O)C2CC2)CC1 [Olaparib] (first compound max 1 µM, partner max 10 µM)	0.433
Cc1c2c(nn1C)CSCc1cc(n(C)n1)CSc1cc(c3ccccc3c1)OCCCc1c(C(=O)O)n(C)c3c-2c(Cl)ccc13 [AZD5991] + CC1(C)CCC(CN2CCN(c3ccc(C(=O)NS(=O)(=O)c4ccc(NCC5CCOCC5)c([N+](=O)[O-])c4)c(Oc4cnc5[nH]ccc5c4)c3)CC2)=C(c2ccc(Cl)cc2)C1 [Venetoclax] (first compound max 1 µM, 7x7, partner max 1 µM)	0.38

Proceed to the following item.
Problem: For EW-24 (Ewing's Sarcoma), give combination Emax of the listed compound: NC1(C(=O)N[C@@H](CCO)c2ccc(Cl)cc2)CCN(c2ncnc3[nH]ccc23)CC1 [Capivasertib] + Cn1cnc2c(F)c(Nc3ccc(Br)cc3Cl)c(C(=O)NOCCO)cc21 [Selumetinib] (first compound max 10 µM, 7x7, partner max 10 µM)
Solution: 0.485

###

system: NUGC-3 (Gastric Carcinoma); assay: combination Emax (second highest fraction inhibited in the dose matrix, 72 h); higher = more inhibition; extreme values may be limits of the assay
The entries below are paired with their reported combination Emax.
A bare number is all that is needed in reply.

molecule	tested-target	value-measured
Cc1cc2ncnn2cc1Nc1ncc2c(n1)n(C1CCOCC1)c(=O)n2C [AZD7648] + C[C@@H]1COCCN1C2=NC(=NC(=C2)C3(CC3)[S@](=N)(=O)C)C4=C5C=CNC5=NC=C4 [AZD6738] (first compound max 10 µM, 7x7, partner max 10 µM)	NUGC-3 (Gastric Carcinoma)	0.665

Proceed to the following item.
Problem: For NUGC-3 (Gastric Carcinoma), give combination Emax of the listed molecule: Cn1cnc2c(F)c(Nc3ccc(Br)cc3Cl)c(C(=O)NOCCO)cc21 [Selumetinib] + CC(C)n1c(=O)n(C)c2cnc3cc(F)c(-c4ccc(OCCCN5CCCCC5)nc4)cc3c21 [AZD1390] (first compound max 10 µM, 7x7, partner max 0.3 µM)
Solution: 0.328

###

The entries below are paired with their reported combination Emax.
system: RF-48 (B-Cell Non-Hodgkin's Lymphoma); test: combination Emax (second highest fraction inhibited in the dose matrix, 72 h); higher = more inhibition; extreme values may be limits of the assay

molecule	tested-target	combination Emax
Cc1c2c(nn1C)CSCc1cc(n(C)n1)CSc1cc(c3ccccc3c1)OCCCc1c(C(=O)O)n(C)c3c-2c(Cl)ccc13 [AZD5991] + C1CN(CCC1(C(=O)N[C@@H](CCO)C2=CC=C(C=C2)Cl)N)C3=NC=NC4=C3C=CN4 [Capivasertib] (first compound max 1 µM, 7x7, partner max 3 µM)	RF-48 (B-Cell Non-Hodgkin's Lymphoma)	0.353
CC(=O)c1c(C)c2cnc(Nc3ccc(N4CCNCC4)cn3)nc2n(C2CCCC2)c1=O [Palbociclib] + Cc1c2c(nn1C)CSCc1cc(n(C)n1)CSc1cc(c3ccccc3c1)OCCCc1c(C(=O)O)n(C)c3c-2c(Cl)ccc13 [AZD5991] (first compound max 10 µM, 7x7, partner max 1 µM)	RF-48 (B-Cell Non-Hodgkin's Lymphoma)	0.298

Proceed to the following item.
Problem: Specify reported combination Emax for the molecule shown: CC1(C)CCC(CN2CCN(c3ccc(C(=O)NS(=O)(=O)c4ccc(NCC5CCOCC5)c([N+](=O)[O-])c4)c(Oc4cnc5[nH]ccc5c4)c3)CC2)=C(c2ccc(Cl)cc2)C1 [Venetoclax] + CCN(CCO)CCCOc1ccc2c(Nc3cc(CC(=O)Nc4cccc(F)c4)[nH]n3)ncnc2c1 [AZD2811] (first compound max 1 µM, 7x7, partner max 1 µM)
Solution: 0.43

###

test system: PANC-04-03 (Pancreatic Carcinoma); test: combination Emax (second highest fraction inhibited in the dose matrix, 72 h); higher = more inhibition; extreme values may be limits of the assay
observation-type: combination Emax
A bare number is all that is needed in reply.

molecule	combination Emax
C[C@@H](c1ccc2nccn2c1)n1nnc2ncc(-c3cnn(C)c3)nc21 [Savolitinib] + Cc1c2c(nn1C)CSCc1cc(n(C)n1)CSc1cc(c3ccccc3c1)OCCCc1c(C(=O)O)n(C)c3c-2c(Cl)ccc13 [AZD5991] (first compound max 1 µM, 7x7, partner max 1 µM)	0.165
Cn1cnc2c(F)c(Nc3ccc(Br)cc3Cl)c(C(=O)NOCCO)cc21 [Selumetinib] + C=CCn1c(=O)c2cnc(Nc3ccc(N4CCN(C)CC4)cc3)nc2n1-c1cccc(C(C)(C)O)n1 [AZD1775] (first compound max 10 µM, partner max 1 µM)	0.456
CC(=O)Nc1cccc(-n2c(=O)n(C3CC3)c(=O)c3c(Nc4ccc(I)cc4F)n(C)c(=O)c(C)c32)c1 [Trametinib] + Cc1nc(-c2cn3c(n2)-c2ccc(-c4cnn(C(C)(C)C(N)=O)c4)cc2OCC3)n(C(C)C)n1 [Taselisib] (first compound max 1 µM, 7x7, partner max 10 µM)	0.89

Proceed to the following item.
Problem: Specify reported combination Emax for the molecule shown: C[C@@H](Oc1cc(-c2cnn(C3CCNCC3)c2)cnc1N)c1c(Cl)ccc(F)c1Cl [Crizotinib] + Cn1cnc2c(F)c(Nc3ccc(Br)cc3Cl)c(C(=O)NOCCO)cc21 [Selumetinib] (first compound max 10 µM, 7x7, partner max 10 µM)
Solution: 0.631

###

test system: HGC-27 (Gastric Carcinoma); assay: Bliss excess, mean over the matrix (fraction); higher = more synergy;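 note: after 72 h of two-drug dosing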
The entries below are paired with their reported Bliss excess.
A bare number is all that is needed in reply.

Solved cases below.
compound	observation-type	value-measured
COc1cccc(OCCCN)c1-c1cc(Nc2cnc(C#N)cn2)n[nH]1 [Prexasertib] + Cc1cc2ncnn2cc1Nc1ncc2c(n1)n(C1CCOCC1)c(=O)n2C [AZD7648] (first compound max 1 µM, 7x7, partner max 10 µM)	Bliss excess	-0.0235
Cc1cc2ncnn2cc1Nc1ncc2c(n1)n(C1CCOCC1)c(=O)n2C [AZD7648] + CCN(CCO)CCCOc1ccc2c(Nc3cc(CC(=O)Nc4cccc(F)c4)[nH]n3)ncnc2c1 [AZD2811] (first compound max 10 µM, 7x7, partner max 1 µM)	Bliss excess	-0.0685
CC1(C)CCC(CN2CCN(c3ccc(C(=O)NS(=O)(=O)c4ccc(NCC5CCOCC5)c([N+](=O)[O-])c4)c(Oc4cnc5[nH]ccc5c4)c3)CC2)=C(c2ccc(Cl)cc2)C1 [Venetoclax] + CCN(CCO)CCCOc1ccc2c(Nc3cc(CC(=O)Nc4cccc(F)c4)[nH]n3)ncnc2c1 [AZD2811] (first compound max 1 µM, 7x7, partner max 1 µM)	Bliss excess	0.0075

Problem: Specify reported Bliss excess for the compound shown: COc1cccc(OCCCN)c1-c1cc(Nc2cnc(C#N)cn2)n[nH]1 [Prexasertib] + CCc1c2c(nc3ccc(O)cc13)-c1cc3c(c(=O)n1C2)COC(=O)[C@]3(O)CC [SN-38] (first compound max 1 µM, 7x7, partner max 0.3 µM)
Solution: 0.0388
